Numbers sourced from patent US20210403591A1.

Molecular target: T1, mTfR-1 P227A on Expi293 cells (mouse, UniProt Q62351 1-763)
T1 construct: whole, on cells
T1 sequence (Q62351 whole entry P227A): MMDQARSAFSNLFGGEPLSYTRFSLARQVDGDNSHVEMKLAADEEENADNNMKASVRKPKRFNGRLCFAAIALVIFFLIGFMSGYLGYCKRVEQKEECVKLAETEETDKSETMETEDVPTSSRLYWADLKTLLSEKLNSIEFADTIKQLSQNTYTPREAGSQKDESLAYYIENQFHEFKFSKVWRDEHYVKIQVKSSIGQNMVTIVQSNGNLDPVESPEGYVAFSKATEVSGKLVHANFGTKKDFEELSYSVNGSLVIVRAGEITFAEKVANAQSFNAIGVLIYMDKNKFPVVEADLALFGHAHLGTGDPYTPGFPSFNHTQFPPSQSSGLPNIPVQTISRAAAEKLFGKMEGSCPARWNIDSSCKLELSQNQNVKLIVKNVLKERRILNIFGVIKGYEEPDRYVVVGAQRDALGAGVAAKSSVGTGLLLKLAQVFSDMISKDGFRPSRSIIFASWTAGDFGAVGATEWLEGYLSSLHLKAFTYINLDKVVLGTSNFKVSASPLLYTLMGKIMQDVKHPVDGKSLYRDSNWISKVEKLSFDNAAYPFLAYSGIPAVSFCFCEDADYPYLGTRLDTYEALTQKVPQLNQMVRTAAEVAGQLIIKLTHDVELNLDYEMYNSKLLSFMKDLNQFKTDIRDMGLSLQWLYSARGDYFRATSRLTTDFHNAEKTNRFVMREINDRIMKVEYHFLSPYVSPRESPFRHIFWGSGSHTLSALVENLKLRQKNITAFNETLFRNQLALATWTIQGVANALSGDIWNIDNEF
Assay: FACS, transfected Expi293 cells
VALUE TYPE: % double-positive cells vs WT (%)
I only need the number, in %, no unit after it.

These solved cases illustrate the format of a correct answer.
BINDER	TEST VALUE
8D3 antibody (anti-mouse TfR-1 control; 8D3-hFc formatted antibody) (antibody, V domains shown) VH: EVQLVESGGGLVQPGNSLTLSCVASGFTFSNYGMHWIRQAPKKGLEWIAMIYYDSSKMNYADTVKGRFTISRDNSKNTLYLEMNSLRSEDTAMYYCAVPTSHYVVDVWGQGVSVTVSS VL: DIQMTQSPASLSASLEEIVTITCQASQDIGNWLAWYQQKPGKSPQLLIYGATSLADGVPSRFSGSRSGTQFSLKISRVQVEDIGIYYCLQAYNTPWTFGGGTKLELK	63
Clone C variant 13 VNAR-hFc (Fc fusion, not shown: a dimerising Fc or GST, also called Clone C v13; Clone C var; 13) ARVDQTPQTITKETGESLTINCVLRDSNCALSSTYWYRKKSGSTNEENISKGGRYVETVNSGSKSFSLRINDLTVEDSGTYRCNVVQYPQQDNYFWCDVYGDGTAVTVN	47
Clone C VNAR-hFc fusion (Fc fusion, not shown: a dimerising Fc or GST, bivalent VNAR-Fc; also called Clone C-hFc) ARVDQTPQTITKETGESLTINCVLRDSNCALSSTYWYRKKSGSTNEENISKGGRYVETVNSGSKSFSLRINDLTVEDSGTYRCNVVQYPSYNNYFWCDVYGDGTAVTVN	77

For the next question, use this binder.
Challenge: Please report % double-positive cells vs WT for the following binder: Clone C variant 18 VNAR-hFc (Fc fusion, not shown: a dimerising Fc or GST, also called Clone C v18; Clone C var; 18) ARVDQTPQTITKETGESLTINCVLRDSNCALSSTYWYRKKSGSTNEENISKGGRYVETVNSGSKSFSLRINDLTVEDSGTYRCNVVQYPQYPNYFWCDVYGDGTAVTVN
Response given: 20
